# test.protocol: compound binding in COS7 lysate, probe aLAP1, primary screen, cell lysate, small-molecule microarray (AID 1124);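 also: lysate comes from COS7 cells expressing LAP1 and is applied at 0.3 µg/mL; score merges spot fluorescence near 667 nm with signal-to-noise over triplicate slides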
# condition.details: probe aLAP1, fluorescence, higher = more signal
Decision: composite z-score >= -0.2 yields Satisfied, all other cases yield Not satisfied.

Example cases with answers are listed next.
C[C@H]1COC(=O)[C@@H]2CCCN2C(=O)[C@@H](C)COC(=O)[C@H](Cc2ccccc2)NC1=O : Satisfied
CCC=CCCC(OC(=O)c1ccc(Br)cc1)C1=CCCCC1=O (configuration not stated) : Satisfied
COc1ccc(O[C@H]2C=C[C@@H](c3ccccc3)O[C@@H]2CON=C(C)CCN2CCc3nc(-c4ccccc4)c(-c4ccccc4)cc3C2)cc1 : Not satisfied
COC(=O)CC=C[C@@H](C)[C@@H](C=NO[C@@H]1O[C@H](COC(C)=O)[C@@H](OC(C)=O)[C@H](OC(C)=O)[C@H]1OC(C)=O)OC : Satisfied
CC(C)CON=C1C[C@@H](O)[C@@H](O)[C@@H]2[C@@H]3C(=O)N(C(C)(C)C)C(=O)[C@@H]3CC[C@H]12 : Satisfied

Does composite z-score meet or surpass -0.2 for COC(=O)[C@@H]1CC[C@@H](C)[C@H](c2ccc(Br)cc2)N1 ?
Satisfied

Does composite z-score meet or surpass -0.2 for O=C1[C@H]2[C@H]3[C@H](O)[C@H](O)CC(=NOCc4ccccc4)[C@@H]3CC[C@H]2C(=O)N1c1ccc(F)cc1F ?
Not satisfied

Does composite z-score meet or surpass -0.2 for COCOc1ccc(Br)cc1C(=O)[C@@H]1O[C@H]1c1cccc(OC)c1 ?
Satisfied

Does composite z-score meet or surpass -0.2 for CCOC(=O)CCN1C(=O)[C@H]2[C@H]3[C@H](O)[C@H](O)CC(=NOCc4ccccc4)[C@H]3CC[C@H]2C1=O ?
Not satisfied

###

Listed here: items and their measured composite z-score.
# test.target: Concanavalin-A (Canavalia ensiformis) (UniProt P02866)
# Sequence (P02866 whole entry, looked up): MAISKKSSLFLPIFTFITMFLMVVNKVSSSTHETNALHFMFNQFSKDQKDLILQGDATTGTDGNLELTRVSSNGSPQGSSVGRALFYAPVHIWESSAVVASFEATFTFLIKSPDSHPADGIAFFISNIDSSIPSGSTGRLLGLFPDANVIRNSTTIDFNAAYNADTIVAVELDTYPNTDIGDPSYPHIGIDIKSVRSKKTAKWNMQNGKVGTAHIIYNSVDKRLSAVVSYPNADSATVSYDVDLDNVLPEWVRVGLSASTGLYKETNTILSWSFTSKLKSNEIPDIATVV
# test.protocol: ConA small-molecule binders, primary screen, artefact control for SMM control protein annotation, biochemical, small-molecule microarray, Alexa647 label, 635 nm (AID 1127);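 also: z combines 667 nm emission intensity with signal-to-noise across three replicate slides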
# condition.details: ConA-A647 binding fluorescence, higher = more signal
// print number alone

CC(C)=CCCC(C)=CCON=C1C[C@@H](O)[C@@H](O)[C@@H]2[C@@H]3C(=O)N(Cc4ccccc4)C(=O)[C@@H]3CC[C@@H]12 : 0.304

Any idea what composite z-score was measured for O=C1CCCC=C1C(O)CCCCBr (centres undefined) ?
1.09

Any idea what composite z-score was measured for CCOC(=O)[C@H](CC(C)C)NC(=O)CCC1CC(OC(=O)NCc2cccc3ccccc23)CC2(CCCC(COC(=O)NCCOc3ccccc3)O2)O1 (some centres undefined) ?
1.06

Any idea what composite z-score was measured for COC(=O)CC=C[C@@H](C)[C@@H](C=NO[C@H](C)c1cn([C@H](CO)Cc2ccccc2)nn1)OC ?
0.254

Any idea what composite z-score was measured for CCOC(=O)CCN1C(=O)[C@H]2[C@H]3[C@H](O)[C@H](O)CC(=NNC(=O)OCc4ccccc4)[C@@H]3CC[C@H]2C1=O ?
1

Any idea what composite z-score was measured for O=C1[C@H]2[C@H]3[C@H](O)[C@H](O)CC(=NOCc4ccccc4)[C@H]3CC[C@H]2C(=O)N1Cc1ccc2c(c1)OCO2 ?
-0.261
